- Tgt: 5-hydroxytryptamine receptor 2C (Homo sapiens)
- Sequence (P28335 whole entry): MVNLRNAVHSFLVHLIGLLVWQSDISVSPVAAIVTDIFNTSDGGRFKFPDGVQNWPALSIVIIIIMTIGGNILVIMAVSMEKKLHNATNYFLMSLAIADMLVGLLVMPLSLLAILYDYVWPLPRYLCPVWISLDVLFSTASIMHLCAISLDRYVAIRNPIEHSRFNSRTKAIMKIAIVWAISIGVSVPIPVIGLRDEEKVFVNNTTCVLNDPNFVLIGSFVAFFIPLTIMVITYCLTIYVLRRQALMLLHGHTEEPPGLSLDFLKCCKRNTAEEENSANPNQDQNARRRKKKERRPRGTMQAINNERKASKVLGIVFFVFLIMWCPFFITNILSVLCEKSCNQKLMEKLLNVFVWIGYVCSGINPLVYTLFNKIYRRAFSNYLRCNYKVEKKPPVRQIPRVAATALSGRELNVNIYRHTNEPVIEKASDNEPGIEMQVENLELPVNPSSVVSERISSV
- Protocol summary: Binding affinity towards human cloned 5-hydroxytryptamine 2C receptor in HEK293 cells, using [3H]mesulergine as radioligand
- Type: cell-based
pKi: −log10 of the molar value.
Reported property: pKi

CC1CCN(CC[C@H]2CCCN2S(=O)(=O)c2cccc(Br)c2)CC1    < 5.30

Case CC1CCN(CC[C@H]2CCCN2S(=O)(=O)c2ccc(Cl)c(Cl)c2)CC1 , 5-hydroxytryptamine receptor 2C (Homo sapiens), pKi recorded as < 6.00

Case CC1CCN(CC[C@H]2CCCCN2S(=O)(=O)c2cccc3ccccc23)CC1 , 5-hydroxytryptamine receptor 2C (Homo sapiens), pKi recorded as < 5.00

Case CC1CCN(CC[C@H]2CCCN2S(=O)(=O)c2cccc3ccccc23)CC1 , 5-hydroxytryptamine receptor 2C (Homo sapiens), pKi recorded as 6.00

These measurements were taken from ChEMBL document CHEMBL1133573.
